target or system: dopamine-β-hydroxylase (DBH) (Bos taurus)
Sequence (P15101 whole entry): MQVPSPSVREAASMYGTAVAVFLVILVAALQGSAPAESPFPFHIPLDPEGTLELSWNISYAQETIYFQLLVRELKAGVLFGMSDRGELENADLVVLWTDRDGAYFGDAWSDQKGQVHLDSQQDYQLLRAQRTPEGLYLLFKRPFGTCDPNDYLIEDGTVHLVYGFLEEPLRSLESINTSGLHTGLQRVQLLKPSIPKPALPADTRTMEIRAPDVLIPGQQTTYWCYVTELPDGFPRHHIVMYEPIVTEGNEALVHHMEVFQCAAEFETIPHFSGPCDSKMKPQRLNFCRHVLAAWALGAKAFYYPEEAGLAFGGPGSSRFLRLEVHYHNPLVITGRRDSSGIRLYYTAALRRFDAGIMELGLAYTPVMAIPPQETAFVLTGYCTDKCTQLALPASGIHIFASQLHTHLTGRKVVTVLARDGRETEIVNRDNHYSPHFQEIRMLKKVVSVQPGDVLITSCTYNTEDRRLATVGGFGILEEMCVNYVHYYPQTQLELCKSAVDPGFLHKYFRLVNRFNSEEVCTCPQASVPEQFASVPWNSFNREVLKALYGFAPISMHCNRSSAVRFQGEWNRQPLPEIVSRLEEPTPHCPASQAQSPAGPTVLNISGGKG
procedure summary: in vitro DBH inhibition (conversion of tyramine to octopamine, spectrophotometric at 330 nm)
Assay type: biochemical
experimental context: in vitro, tyramine to octopamine conversion; read-out: IC50 (molar concentration of compound at which DBH activity was halved)
pIC50: −log10 of the molar value.
measured parameter: pIC50

>>> print(df.to_string())
                                   compound  reported_measurement
0                      Fc1cccc(Cn2cnnc2S)c1                  5.57
1                   Fc1cc(F)cc(Cn2cnnc2S)c1                  6.00
2  Sc1nncn1Cc1ccccc1 [4-benzyl-1,2,4-triazole-3-thiol]                  4.62

(1) Oc1c(F)cc(Cn2cnnc2S)cc1F
(2) COc1c(F)cc(Cn2cnnc2S)cc1F
Kindly identify which of 1 and 2 has the larger recorded pIC50 value. Bench note: the answer is the label of the chosen record. 1

----------
target or system: UniProt P15101
procedure summary: in vitro DBH inhibition (conversion of tyramine to octopamine, spectrophotometric at 330 nm)
Assay type: biochemical
measured parameter: pIC50
A value of pIC50 is the negative decimal logarithm of a concentration given in moles per litre.

Field request: pIC50 | item: CCCCc1ccc(C(=O)O)nc1 [Fusaric acid] 6.10
